# reported ED50; entries follow
# System: Rattus norvegicus
# measurement.protocol: Minimal motor impairment activity by Rotarod test in rat following p.o. administration.
# Type: functional
# conditions: po
experimental.endpoint: ED50

In [3]: df
Out[3]:
                                    molecule  experimental_endpoint  experimental_value
 0      N#Cc1[nH]cc(-c2ccc(Cl)cc2)c1N1CCOCC1                   ED50          > 50 mg/kg
 1  COC(=O)c1[nH]cc(-c2ccc(Cl)cc2)c1N(C)CCN(C)C                   ED50          > 50 mg/kg
 2   CC(=O)c1[nH]cc(-c2ccc(Cl)cc2)c1N1CCOCC1                   ED50         > 100 mg/kg
 3  COC(=O)c1[nH]cc(-c2ccc(Cl)cc2)c1N1CCOCC1                   ED50         > 500 mg/kg
 4  NC(=O)N1c2ccccc2C=Cc2ccccc21 [CARBAMAZEPINE]                   ED50           361 mg/kg
 5     COC(=O)c1[nH]cc(-c2ccccc2C)c1N1CCOCC1                   ED50          > 50 mg/kg
 6  COC(=O)c1[nH]cc(-c2ccc(Br)cc2)c1N1CCOCC1                   ED50         > 500 mg/kg
 7           Clc1ccc(-c2c[nH]nc2N2CCOCC2)cc1                   ED50          > 50 mg/kg
 8   O=C(O)c1[nH]cc(-c2ccc(Cl)cc2)c1N1CCOCC1                   ED50          > 25 mg/kg
 9  COC(=O)c1c(N2CCOCC2)c(-c2ccc(Cl)cc2)cn1C(=O)c1ccccc1                   ED50         > 500 mg/kg
10  CCOC(=O)c1[nH]cc(-c2ccc(Cl)cc2)c1N1CCOCC1                   ED50         > 500 mg/kg
11  COC(=O)c1c(N2CCOCC2)c(-c2ccc(Cl)cc2)cn1C(C)=O                   ED50         > 250 mg/kg
12  CCOC(=O)c1[nH]cc(-c2ccc(Cl)cc2)c1N1CCN(C)CC1                   ED50          < 25 mg/kg
13         O=C1NC(=O)C(c2ccccc2)(c2ccccc2)N1                   ED50         > 500 mg/kg
14  CN1CCN(C(=O)c2[nH]cc(-c3ccc(Cl)cc3)c2N2CCOCC2)CC1                   ED50          > 50 mg/kg
15  COC(=O)c1[nH]cc(-c2ccc(Cl)cc2)c1N1CCN(c2ccccc2)CC1                   ED50         > 500 mg/kg
16   NC(=O)c1[nH]cc(-c2ccc(Cl)cc2)c1N1CCOCC1                   ED50          > 50 mg/kg
17           Clc1ccc(-c2c[nH]cc2N2CCOCC2)cc1                   ED50         > 200 mg/kg

// provenance: ChEMBL document CHEMBL1131206
